assay: in vitro; details: mouse, microsomes, pH 7.4, T1/2 + ritonavir (min)
observationType: half-life (h)
Output spec: scalar in h, unitless text.

Specify measured half-life for `[2H]C([2H])(c1cc(Cl)ccc1N)N1CCN(C(=O)CNC(=O)CC2CCC(F)(F)CC2)CC1` .
2.4

Specify measured half-life for [2H]C([2H])(c1cc(Cl)ccc1N)N1CCN(C(=O)CNC(=O)C2CC23CCC(F)(F)CC3)CC1 (centres unmarked) .
3.58

* * *

conditions: mouse, in vivo, po, 25 mg/kg
observationType: Cmax (µM)
Output spec: scalar in µM, unitless text.

Specify measured Cmax for `[2H]C([2H])(c1cc(Cl)ccc1N)N1CCN(C(=O)CNC(=O)CC2CCC(F)(F)CC2)CC1` .
7.2

* * *

conditions: pH 7.4
observationType: Kinetic solubility (µM)
Output spec: scalar in µM, unitless text.

Specify measured Kinetic solubility for [2H]C([2H])(c1cc(Cl)ccc1N)N1CCN(C(=O)CNC(=O)C2CC23CCC(F)(F)CC3)CC1 (single isomer, unassigned; (-)) [(−)-1413] .
78

Specify measured Kinetic solubility for CS(=O)(=O)c1ccc(COc2ccc(Cl)cc2CN2CCN(C(=O)CNC(=O)C3CC34CCC(F)(F)CC4)CC2)cc1 (single isomer, unassigned; (-)) [(−)-1476] .
10

Specify measured Kinetic solubility for [2H]C([2H])(c1cc(Cl)ccc1NCc1ccc(S(C)(=O)=O)cc1)N1CCN(C(=O)CNC(=O)C2CC23CCC(F)(F)CC3)CC1 (single isomer, unassigned; (-)) [(−)-1503] .
4

Specify measured Kinetic solubility for [2H]C([2H])(c1cc(Cl)ccc1N)N1CCN(C(=O)CNC(=O)CC2CCC(F)(F)CC2)CC1 [Compound 1412] .
93

* * *

test system: vesicular stomatitis virus particles (VSV) pseudotyped with EboV Zaire GP; experiment: microbe, parasite or virus in culture; assay type: cell-based; settings: Vesicular stomatitis virus
Exercise: for every item that follows, state its recorded IC50.

Specify measured IC50 for `COC(=O)c1ccc(COc2ccccc2CN2CCN(C(=O)CNC(=O)CC3CCC(F)(F)CC3)CC2)cc1` .
50 nM

Specify measured IC50 for `O=C(CC12CC3CC(CC(Br)(C3)C1)C2)NCC(=O)N1CCN(Cc2ccccc2OCc2ccc(Br)cc2)CC1` .
600 nM

Specify measured IC50 for `N#Cc1ccc(Br)cc1CN1CCN(C(=O)CNC(=O)CC2CCC(F)(F)CC2)CC1` .
> 2000 nM

Specify measured IC50 for `COC(=O)c1ccc(COc2ccccc2CN2CCN(C(=O)CNC(=O)NC3CCC(F)(F)CC3)CC2)cc1` .
> 2000 nM

Specify measured IC50 for [2H]C([2H])(c1cc(Cl)ccc1NCc1cnco1)N1CCN(C(=O)CNC(=O)C2CC23CCC(F)(F)CC3)CC1 (stereo not shown) .
40 nM

Specify measured IC50 for `O=C(CC1CCC(F)(F)CC1)NCC(=O)N1CCN(Cc2cc(Cl)ccc2O)CC1` .
190 to 730 nM

Specify measured IC50 for `O=C(CC12CC3CC(CC(C3)C1)C2)NCC(=O)N1CCN(Cc2cc(Cl)cc(Br)c2)CC1` .
900 nM

* * *

tested on: vesicular stomatitis virus particles (VSV) pseudotyped with EboV Zaire GP; assay: microbe, parasite or virus in culture; assay type: cell-based; conditions: Vesicular stomatitis virus
observationType: pIC50
Please note pIC50 is a logarithmic value: minus log10 of concentration in mol/L. Answer with that number alone.

Specify measured pIC50 for `O=C(CC12CC3CC(CC(O)(C3)C1)C2)NCC(=O)N1CCN(Cc2ccccc2OCc2ccc(Br)cc2)CC1` .
6.30

Specify measured pIC50 for `O=C(CC1CCC(F)(F)CC1)NCC(=O)N1CCN(Cc2cc(Cl)cc3cccnc23)CC1` .
6.44

Specify measured pIC50 for `O=C(CC12CC3CC(CC(C3)C1)C2)NCC(=O)N1CCN(Cc2c(Cl)cccc2Cl)CC1` .
6.00

Specify measured pIC50 for O=C(NCC(=O)N1CCN(Cc2cc(Cl)cc(F)c2O)CC1)C1CC12CCC(F)(F)CC2 (stereo not drawn) .
6.20

Specify measured pIC50 for COC(=O)c1ccc(COc2ccccc2CN2CCN(C(=O)CNC(=O)C3CC34CCCCC4)CC2)cc1 (stereo not drawn) .
7.15

Specify measured pIC50 for `COC(=O)c1ccc(COc2ccccc2CN2CCN(C(=O)CNC(=O)C3(C)CCC(F)(F)CC3)CC2)cc1` .
6.60

Specify measured pIC50 for `O=C(CC12CC3CC(CC(C3)C1)C2)NCC(=O)N1CCN(Cc2cc(F)cc(Br)c2)CC1` .
5.85

Specify measured pIC50 for `[2H]C([2H])(c1cc(Cl)ccc1NCc1cnco1)N1CCN(C(=O)CNC(=O)[C@@H]2CC23CCC(F)(F)CC3)CC1` .
6.89

Specify measured pIC50 for `O=C(CC12CC3CC(CC(C3)C1)C2)NCC(=O)N1CCN(Cc2cc(Cl)c(F)cc2F)CC1` .
6.43

Specify measured pIC50 for `COC(=O)c1ccc(COc2ccccc2CN2CCN(C(=O)CNC(=O)CC3(C)CCCCC3)CC2)cc1` .
7.10

* * *

Recorded Concentration required to reduce cell viability by 50% values (cell viability) are given below.
observationType: Concentration required to reduce cell viability by 50%

compound	experimentalValue
COC(=O)c1ccc(COc2ccccc2CN2CCN(C(=O)CNC(=O)CC34CC5CC(CC(C5)C3)C4)CC2)cc1 [Compound 3.47, reference compound]	exceeded 10 μM
CS(=O)(=O)c1ccc(COc2ccc(Cl)cc2CN2CCN(C(=O)CNC(=O)C3CC34CCC(F)(F)CC4)CC2)cc1 (racemic) [(racemic)-1476]	exceeded 10 μM
[2H]C([2H])(c1cc(Cl)ccc1NCc1ccc(S(C)(=O)=O)cc1)N1CCN(C(=O)CNC(=O)C2CC23CCC(F)(F)CC3)CC1 (racemic) [(racemic)-1503]	exceeded 10 μM
CS(=O)(=O)c1ccc(CNc2ccc(Cl)cc2CN2CCN(C(=O)CNC(=O)CC3CCC(F)(F)CC3)CC2)cc1	exceeded 10 μM

* * *

tested on: vesicular stomatitis virus particles (VSV) pseudotyped with EboV Zaire GP; test: microbe, parasite or virus in culture; format: cell-based; conditions: Vesicular stomatitis virus
observationType: IC50 (µM)
Output spec: scalar in µM, unitless text.

Specify measured IC50 for COC(=O)c1cccc(-c2cc(Cl)cc(CN3CCN(C(=O)CNC(=O)CC45CC6CC(C4)C(C6)C5)CC3)c2)c1 [Compound 1441] .
0.248

Specify measured IC50 for COC(=O)c1cccc(Oc2cc(Cl)cc(CN3CCN(C(=O)CNC(=O)CC45CC6CC(CC(C6)C4)C5)CC3)c2)c1 [Compound 1322] .
0.011

Specify measured IC50 for COC(=O)c1ccc(/C=C/c2ccccc2CN2CCN(C(=O)CNC(=O)CC34CC5CC(CC(C5)C3)C4)CC2)cc1 [Compound 1253] .
1.5

* * *

Exercise: for every item that follows, state its recorded IC50.
tested on: vesicular stomatitis virus particles (VSV) pseudotyped with EboV Zaire GP; experiment: microbe, parasite or virus in culture; type: cell-based; details: Vesicular stomatitis virus
Output spec: scalar in nM, unitless text.

Specify measured IC50 for CS(=O)(=O)c1ccc(Oc2cc(Cl)cc(CN3CCN(C(=O)CNC(=O)C4CC45CCC(F)(F)CC5)CC3)c2)cc1 (centres unmarked) [Compound 1461] .
150

Specify measured IC50 for O=C(CC12CC3CC(CC(C3)C1)C2)NCC(=O)N1CCN(Cc2cc(Cl)ccc2O)CC1 [Compound 1249] .
200

Specify measured IC50 for [2H]C([2H])(c1cc(Cl)ccc1NCc1ccc(C(=O)OC)cn1)N1CCN(C(=O)CNC(=O)C2CC23CCC(F)(F)CC3)CC1 (centres unmarked) [Compound 1548] .
7

Specify measured IC50 for COC(=O)c1ccc(COc2ccccc2CN2CCN(C(=O)CNC(=O)CC(C)(C)c3ccccc3)CC2)cc1 [Compound 1279] .
1500

Specify measured IC50 for Nc1ccc(Cl)cc1CN1CCN(C(=O)CNC(=O)C2CC23CCC3)CC1 (centres unmarked) [Compound 1807] .
2500

Specify measured IC50 for [2H]C([2H])(c1cc(Cl)ccc1NCc1ncccn1)N1CCN(C(=O)CNC(=O)[C@@H]2CC23CCC(F)(F)CC3)CC1 [Compound 1580] .
700

Specify measured IC50 for O=C(CC1CCC(F)(F)CC1)NCC(=O)N1CCN(Cc2cc(Cl)cc(F)c2O)CC1 [Compound 1402] .
2900

Specify measured IC50 for O=C(CC12CC3CC(CC(C3)C1)C2)NCC(=O)N1CCN(Cc2cc(Br)ccc2F)CC1 [Compound 1337] .
1200

Specify measured IC50 for [2H]C([2H])(c1cc(Cl)ccc1NCC)N1CCN(C(=O)CNC(=O)C2CC23CCC(F)(F)CC3)CC1 (centres unmarked) [Compound 1534] .
200

Specify measured IC50 for CS(=O)(=O)c1ccc(Oc2cc(F)cc(CN3CCN(C(=O)CNC(=O)C4CC45CCC(F)(F)CC5)CC3)c2)cc1 (centres unmarked) [Compound 1459] .
200

Specify measured IC50 for [2H]C([2H])(c1cc(Cl)ccc1NCc1ccon1)N1CCN(C(=O)CNC(=O)[C@@H]2CC23CCC(F)(F)CC3)CC1 [Compound 1581] .
470

Specify measured IC50 for [2H]C([2H])(c1cc(Cl)ccc1NCc1ccc(C#N)cn1)N1CCN(C(=O)CNC(=O)[C@@H]2CC23CCC(F)(F)CC3)CC1 [Compound 1584] .
30

Specify measured IC50 for Nc1cc(Cl)cc(CN2CCN(C(=O)CNC(=O)C3CC34CCC(F)(F)CC4)CC2)c1 (centres unmarked) [Compound 1388] .
500

Specify measured IC50 for Nc1cc(Br)cc(CN2CCN(C(=O)CNC(=O)CC34CC5CC(CC(C5)C3)C4)CC2)c1 [Compound 1341] .
320

Specify measured IC50 for CS(=O)(=O)c1ccc(COc2ccc(Cl)cc2CN2CCN(C(=O)CNC(=O)C3CC34CCC(F)(F)CC4)CC2)nc1 (centres unmarked) [Compound 1621] .
30

Specify measured IC50 for Nc1ccc(Br)cc1CN1CCN(C(=O)CNC(=O)CC2CCC(F)(F)CC2)CC1 [Compound 1355] .
1740

Specify measured IC50 for O=C(CC1CCC(F)(F)CC1)NCC(=O)N1CCN(Cc2cccc3ccncc23)CC1 [Compound 1427] .
2450

Specify measured IC50 for COC(=O)c1ccc(COc2ccc(Cl)cc2CN2CCN(C(=O)CNC(=O)C3CC3(F)F)CC2)cc1 (centres unmarked) [Compound 1357] .
500
